# assay target: BChE (Equus caballus)
# run description: biochemical
# Assay type: biochemical
# condition notes: read-out: BChE % Inhibition
measured metric: inhibition at 250 µM
Provide the measurement as a number trailed by its unit.

These recorded examples may help you get a feel for the data.
structure string	measurement
C=CCCCn1nnc2ccc3sccc3c21	86.5%
COc1ccc2ccc3nnn(Cc4cccc(F)c4)c3c2c1	43.8%
C=CCCCn1nnc2ccc3ccc(OC)cc3c21	76.6%

Return the recorded inhibition at 250 µM value; entry: COc1cccc(Cn2nnc3ccc4ccc(OC)cc4c32)c1
47.8%

###

We begin with a simple list: items and their reported inhibition at 500 µM.
# assay target: BChE (Equus caballus, UniProt P81908)
# Sequence (P81908 whole entry): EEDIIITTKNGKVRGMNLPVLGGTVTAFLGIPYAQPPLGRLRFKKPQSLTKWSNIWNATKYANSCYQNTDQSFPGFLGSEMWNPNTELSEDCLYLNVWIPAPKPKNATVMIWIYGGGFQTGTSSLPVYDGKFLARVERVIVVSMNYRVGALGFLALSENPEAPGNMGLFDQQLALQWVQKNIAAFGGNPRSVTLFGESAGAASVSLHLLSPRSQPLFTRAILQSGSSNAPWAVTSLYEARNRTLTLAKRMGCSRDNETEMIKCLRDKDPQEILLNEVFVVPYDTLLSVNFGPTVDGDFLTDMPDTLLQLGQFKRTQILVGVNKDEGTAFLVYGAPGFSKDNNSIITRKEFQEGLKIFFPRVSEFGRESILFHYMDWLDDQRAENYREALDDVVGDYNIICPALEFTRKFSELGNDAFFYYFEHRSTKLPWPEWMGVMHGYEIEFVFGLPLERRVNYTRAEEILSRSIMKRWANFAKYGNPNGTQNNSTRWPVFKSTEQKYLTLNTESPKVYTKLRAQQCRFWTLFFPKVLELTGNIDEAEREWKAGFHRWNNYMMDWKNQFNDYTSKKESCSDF
# run description: biochemical
# Type: biochemical
# condition notes: read-out: BChE % Inhibition
Express it in %; write the number only.

structure string	measurement
COc1ccc2ccc3nnn(Cc4ccc(F)cc4)c3c2c1	25
COc1ccc2ccc3nnn(C(C)C)c3c2c1	65.3
COc1ccc2ccc3nnn(Cc4cccs4)c3c2c1	60.9

Read the next record carefully.
Return the recorded inhibition at 500 µM value; entry: C=CCCn1nnc2ccc3ccc(OC)cc3c21
80.2

###

We begin with a simple list: items and their reported IC50.
# Test system: TNF-α production in PBMC stimulated with LPS
# run description: Inhibition of TNF-α production in PBMCs stimulated with LPS (ELISA)
# Type: cell-based
# condition notes: Homo sapiens, average of 2 independent experiments (donors), LPS 1 ng/mL, 24 h, read-out: IC50/μM (av.) PMBC-LPS/TNF-α

These recorded examples may help you get a feel for the data.
molecule	assay target	measured metric	measurement
COc1ccc(CCn2nnc3ccc4sccc4c32)cc1 [Compound 21]	TNF-α production in PBMC stimulated with LPS	IC50	17 µM
CC(=O)Nc1nc2c(ccc3sccc32)s1 [Compound 31]	TNF-α production in PBMC stimulated with LPS	IC50	> 100 µM
OCCCCn1nnc2ccc3sccc3c21 [Compound 14]	TNF-α production in PBMC stimulated with LPS	IC50	38.8 µM

Return the recorded IC50 value; entry: c1csc(Cn2nnc3ccc4sccc4c32)c1 [Compound 22]
16.1 µM

Return the recorded IC50 value; entry: Clc1nc2c(ccc3sccc32)s1 [Compound 29]
> 100 µM

Return the recorded IC50 value; entry: C=CCn1nnc2ccc3sc(C)cc3c21 [Compound 8]
> 100 µM

###

We begin with a simple list: items and their reported inhibition at 250 µM.
# assay target: AChE (Electrophorus electricus, UniProt O42275)
# Sequence (O42275 24-633): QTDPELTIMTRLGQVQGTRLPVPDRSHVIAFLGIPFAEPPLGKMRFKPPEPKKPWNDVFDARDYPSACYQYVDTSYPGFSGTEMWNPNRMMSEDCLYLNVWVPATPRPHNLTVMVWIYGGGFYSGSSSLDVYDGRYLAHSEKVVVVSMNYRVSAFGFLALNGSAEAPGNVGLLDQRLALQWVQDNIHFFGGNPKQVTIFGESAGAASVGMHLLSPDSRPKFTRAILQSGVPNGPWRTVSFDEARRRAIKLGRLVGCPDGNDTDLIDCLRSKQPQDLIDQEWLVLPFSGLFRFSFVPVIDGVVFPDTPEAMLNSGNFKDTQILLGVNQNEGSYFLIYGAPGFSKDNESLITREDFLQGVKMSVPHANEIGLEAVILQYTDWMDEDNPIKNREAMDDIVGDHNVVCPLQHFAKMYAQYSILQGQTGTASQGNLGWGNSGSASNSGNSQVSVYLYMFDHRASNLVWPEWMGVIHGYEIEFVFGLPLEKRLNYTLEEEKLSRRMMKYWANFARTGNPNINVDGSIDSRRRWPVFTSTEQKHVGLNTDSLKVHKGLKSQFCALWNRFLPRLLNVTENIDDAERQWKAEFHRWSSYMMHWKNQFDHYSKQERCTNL
# run description: biochemical
# Type: biochemical
# condition notes: at maximal concentration tested 250 μM
Express it in %; write the number only.

These recorded examples may help you get a feel for the data.
compound	inhibition at 250 µM (%)
C=CCCCn1nnc2ccc3ccc(OC)cc3c21 [Compound 3]	64.8
COc1cccc(Cn2nnc3ccc4ccc(OC)cc4c32)c1 [Compound 6]	78.6
C=CCCCn1nnc2ccc3sccc3c21 [Compound 13]	46.4

Read the next record carefully.
Return the recorded inhibition at 250 µM value; entry: COc1ccc2ccc3nnn(Cc4cccc(F)c4)c3c2c1 [Compound 5]
80.8

###

# assay target: BChE (Equus caballus)
# run description: biochemical
# Assay type: biochemical
# condition notes: read-out: BChE % Inhibition
measured metric: inhibition at 350 µM (%)
Express it in %; write the number only.

Return the recorded inhibition at 350 µM value; entry: Cc1cc2c(ccc3nnn(Cc4cccs4)c32)s1 [Compound 11]
72.3

###

# Tested on: TNF-α production in PBMC stimulated with LPS
# run description: Inhibition of TNF-α production in PBMCs stimulated with LPS (ELISA)
# Assay type: cell-based
# condition notes: Homo sapiens, average of 2 independent experiments (donors), LPS 1 ng/mL, 24 h, read-out: IC50/μM (av.) PMBC-LPS/TNF-α
measured metric: IC50

structure string	measurement
FC(F)(F)c1nc2c(ccc3sccc32)s1	> 100 µM
COc1ccc2ccc3nnn(Cc4cccc(F)c4)c3c2c1	> 100 µM
c1cc2c(ccc3nnn(CCCN4CCOCC4)c32)s1	> 100 µM
COc1ccc2ccc3nnn(Cc4cccs4)c3c2c1	> 100 µM
COc1ccc(Cn2nnc3ccc4sc(C)cc4c32)cc1	19.2 µM

Return the recorded IC50 value; entry: OCCCCn1nnc2c1-c1ccsc1CC2
> 100 µM

###

# assay target: UniProt:O42275
# run description: biochemical
# Type: biochemical
# condition notes: at maximal concentration tested 500 μM
We begin with a simple list: items and their reported inhibition at 500 µM.
Express it in %; write the number only.

These recorded examples may help you get a feel for the data.
molecule	u	inhibition at 500 µM
COc1ccc2ccc3nnn(Cc4ccc(F)cc4)c3c2c1 [Compound 4]	%	35.1
COc1ccc2ccc3nnn(C(C)C)c3c2c1 [Compound 1]	%	58.1
COc1ccc2ccc3nnn(Cc4cccs4)c3c2c1 [Compound 7]	%	81.4

Read the next record carefully.
Return the recorded inhibition at 500 µM value; entry: C=CCCn1nnc2ccc3ccc(OC)cc3c21 [Compound 2]
77.9

###

# assay target: UniProt O42275
# run description: biochemical
# Type: biochemical
# condition notes: at maximal concentration tested 350 μM
We begin with a simple list: items and their reported inhibition.
Express it in %; write the number only.

molecule	inhibition, %
COc1ccc(Cn2nnc3ccc4sc(C)cc4c32)cc1 [Compound 10]	83.6
C=CCn1nnc2ccc3sc(C)cc3c21 [Compound 8]	43.5
Cc1cc2c(ccc3nnn(Cc4cccs4)c32)s1 [Compound 11]	71.3
Cc1cc2c(ccc3nnn(Cc4ccco4)c32)s1 [Compound 12]	41.8

Read the next record carefully.
Return the recorded inhibition value; entry: Cc1cc2c(ccc3nnn(Cc4ccc(F)cc4)c32)s1 [Compound 9]
78.8

###

# assay target: AChE (Electrophorus electricus, UniProt O42275)
pIC50: −log10 of the molar value.
I would appreciate it if you labelled entries 1 (yes) when pIC50 is 4 or higher, otherwise 0 (no).

Please review the following examples before continuing.
structure string	class
Cc1cc2c(ccc3nnn(Cc4cccs4)c32)s1	0 (no)
COc1ccc2ccc3nnn(C(C)C)c3c2c1	0 (no)
COc1ccc2ccc3nnn(Cc4cccc(F)c4)c3c2c1	1 (yes)
C=CCCCn1nnc2ccc3ccc(OC)cc3c21	1 (yes)
COc1cccc(Cn2nnc3ccc4ccc(OC)cc4c32)c1	0 (no)

Here is the next item to consider.
hey, is pIC50 for this one >= 4? COc1ccc(Cn2nnc3ccc4sc(C)cc4c32)cc1
1 (yes)

###

# assay target: BChE (Equus caballus, UniProt P81908)
# run description: biochemical
# Type: biochemical
Flag rule - IC50 less than 100 µM flags t; the remaining entries get f.

compound	class
COc1ccc2ccc3nnn(Cc4cccs4)c3c2c1 [Compound 7]	f

Is it true that IC50 reported for C=CCn1nnc2ccc3sc(C)cc3c21 [Compound 8] is less than 100 µM?
f

Is it true that IC50 reported for COc1ccc2ccc3nnn(C(C)C)c3c2c1 [Compound 1] is less than 100 µM?
f

Is it true that IC50 reported for C=CCCCn1nnc2ccc3ccc(OC)cc3c21 [Compound 3] is less than 100 µM?
t

Is it true that IC50 reported for C=CCCn1nnc2ccc3ccc(OC)cc3c21 [Compound 2] is less than 100 µM?
f

Is it true that IC50 reported for Cc1cc2c(ccc3nnn(Cc4cccs4)c32)s1 [Compound 11] is less than 100 µM?
f

Is it true that IC50 reported for Cc1cc2c(ccc3nnn(Cc4ccc(F)cc4)c32)s1 [Compound 9] is less than 100 µM?
t

Is it true that IC50 reported for C=CCCCn1nnc2ccc3sccc3c21 [Compound 13] is less than 100 µM?
t

###

# Test system: TNF-α production in PBMC stimulated with LPS
# run description: Inhibition of TNF-α production in PBMCs stimulated with LPS (ELISA)
# Assay type: cell-based
# condition notes: Homo sapiens, average of 2 independent experiments (donors), LPS 1 ng/mL, 24 h, read-out: IC50/μM (av.) PMBC-LPS/TNF-α
measured metric: log10(IC50) (log10 of the value in µM)
Friendly reminder: values = log10 of IC50, unit µM.

These recorded examples may help you get a feel for the data.
compound	assay target	measured metric	measurement
Fc1ccc(Cn2nnc3ccc4sccc4c32)cc1	TNF-α production in PBMC stimulated with LPS	log10(IC50)	1.44
Cc1cc2c(ccc3nnn(Cc4ccco4)c32)s1	TNF-α production in PBMC stimulated with LPS	log10(IC50)	1.61
C=CCCCn1nnc2ccc3sccc3c21	TNF-α production in PBMC stimulated with LPS	log10(IC50)	1.33
C[C@@H]1C[C@H]2[C@@H]3CCC4=CC(=O)C=C[C@]4(C)[C@@]3(F)[C@@H](O)C[C@]2(C)[C@@]1(O)C(=O)CO [dexamethasone, reference compound]	TNF-α production in PBMC stimulated with LPS	log10(IC50)	-2.15
Cc1nc2c(ccc3sccc32)s1	TNF-α production in PBMC stimulated with LPS	log10(IC50)	1.09
FC(F)(F)c1ccc(Cn2nnc3ccc4sccc4c32)cc1	TNF-α production in PBMC stimulated with LPS	log10(IC50)	1.01

Return the recorded log10(IC50) value; entry: C=CCCn1nnc2ccc3ccc(OC)cc3c21
1.02
